# ASSAY_TARGET: peroxidase-anti-peroxidase (PAP) immune complexes (UniProt P00433)
# Sequence (P00433 31-338, one chain of several): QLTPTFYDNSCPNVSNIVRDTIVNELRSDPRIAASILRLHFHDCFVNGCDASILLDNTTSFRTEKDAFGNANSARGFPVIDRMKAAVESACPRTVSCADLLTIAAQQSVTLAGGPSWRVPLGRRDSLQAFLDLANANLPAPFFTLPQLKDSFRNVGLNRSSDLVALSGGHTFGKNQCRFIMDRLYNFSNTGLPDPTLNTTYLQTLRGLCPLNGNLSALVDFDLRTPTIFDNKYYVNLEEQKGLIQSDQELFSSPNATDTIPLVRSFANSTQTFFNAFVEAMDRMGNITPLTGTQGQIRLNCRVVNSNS
# ASSAY_SUMMARY: reverse ELISA: rabbit PAP pre-incubated with peptide; competitor: immobilised MBP
Positions of bridges follow the written chain, without caps; N, C: chain ends. No end group written: not given here.
ATTRIBUTE_MEASURED: OD 405 nm

binder="DCARHLGELVWCT (disulfide 2-12 (inferred)) [… (SEQ ID NO:4)]" observed_value="0.473 OD"
binder="RCARHLGELVWCT (disulfide 2-12 (inferred)) [… (SEQ ID NO:5)]" observed_value="0.569 OD"
binder="PCARHLGELVWCT (disulfide 2-12 (inferred)) [… (SEQ ID NO:41)]" observed_value="0.489 OD"

Next, consider the following binder.
Q) Entry under review: DCAWHLGELAACT (cyclized by a disulfide bond between the two cysteine residues) [… (SEQ ID NO:42)] . Reported OD 405 nm?
A) 0.706 OD
